Origin of values: patent US20040171658A1

test.target: TF/FVIIa (Homo sapiens, UniProt P08709)
Sequence (P08709 213-466 limits assumed): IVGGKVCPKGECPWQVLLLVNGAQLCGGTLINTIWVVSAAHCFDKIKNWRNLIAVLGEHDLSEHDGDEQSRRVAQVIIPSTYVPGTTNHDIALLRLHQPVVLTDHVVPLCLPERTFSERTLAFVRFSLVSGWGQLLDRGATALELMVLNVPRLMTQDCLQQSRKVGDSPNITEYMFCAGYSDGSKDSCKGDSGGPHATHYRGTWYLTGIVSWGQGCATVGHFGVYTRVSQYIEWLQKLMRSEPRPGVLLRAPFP
Sequence (P08709 61-212 partner limits assumed): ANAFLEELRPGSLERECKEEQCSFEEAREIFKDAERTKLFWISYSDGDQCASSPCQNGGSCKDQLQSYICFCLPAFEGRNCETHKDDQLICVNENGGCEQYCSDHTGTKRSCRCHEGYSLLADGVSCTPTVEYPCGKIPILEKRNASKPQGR
Sequence (P13726 33-295 partner): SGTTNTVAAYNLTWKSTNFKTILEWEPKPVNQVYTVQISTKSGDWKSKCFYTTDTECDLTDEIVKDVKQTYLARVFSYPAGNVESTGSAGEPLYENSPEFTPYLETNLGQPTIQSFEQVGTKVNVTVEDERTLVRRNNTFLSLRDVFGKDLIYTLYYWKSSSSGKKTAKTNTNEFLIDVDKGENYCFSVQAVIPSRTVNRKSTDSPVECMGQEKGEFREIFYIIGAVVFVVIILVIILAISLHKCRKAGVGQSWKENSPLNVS
measurement.description: TF/factor VIIa inhibition (TF/FVIIa-IC50)
pIC50: −log10 of the molar value.

compound: N=C(N)c1ccc(O[C@@H]2CO[C@H]3[C@@H]2OC[C@@H]3OCc2cccc(C(=N)N)c2)cc1 [Compound A2]
pIC50: 5.41
//
compound: N=C(N)c1cccc(O[C@H]2CO[C@H]3[C@@H]2OC[C@H]3Oc2cccc(C(=N)N)c2)c1 [Compound B2]
pIC50: 5.22
//
compound: N=C(N)c1ccc(O[C@@H]2CO[C@H]3[C@@H]2OC[C@@H]3Oc2cccc(C(=N)N)c2)cc1 [Compound B1]
pIC50: 7.00
